Overview of reported protein stability index across a group of variants:
B1: FAM46C (parent)
chain: FDHLQNRLIATKNPEEIRGGGLLK

# Variants of: B1
# Test: protein stability index of a GFP-peptide fusion (GPS, HEK-293T) (PSI 1-6); higher = more stable;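 note: lentivirally expressed fusions sorted by FACS into six bins by GFP to DsRed ratio, PSI derived from sequencing read proportions per bin multiplied by bin number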
# Conditions: c terminus: a fixed tail appended
Observation type: protein stability index

> print(dat)
   mutation.key         observation.type  result
1          N13E  protein stability index     4.1
2           F1S  protein stability index    4.09
3          G20K  protein stability index    3.98
4          G21D  protein stability index       4
5          T11W  protein stability index    3.98

All figures here come from the supplement of paper PMC10567573.
